Recorded values, source the supplement of paper PMC11424490.

- Tested on: SW837
- Method Notes: combination cScore with adagrasib (Bliss gap around IC50) (%PoC); higher = stronger additive effect
Can you tell me combination cScore with adagrasib for the items I'm about to list?
Numbers only.

Here are 8 molecules together with their reported answers.
1. CC(C)C[C@@H](C(=O)N[C@H](C(=O)OC1CCCC1)c1ccccc1)[C@H](O)C(=O)NO [Tosedostat] + C=C(F)C(=O)N1CCN(c2nc(OC[C@@H]3CCCN3C)nc3c2CCN(c2cccc4cccc(Cl)c24)C3)C[C@@H]1CC#N [adagrasib] | 19.8
2. CC(C)NC[C@@H](C(=O)N1CCN(c2ncnc3c2[C@H](C)C[C@H]3O)CC1)c1ccc(Cl)cc1 [Ipatasertib] + C=C(F)C(=O)N1CCN(c2nc(OC[C@@H]3CCCN3C)nc3c2CCN(c2cccc4cccc(Cl)c24)C3)C[C@@H]1CC#N [adagrasib] | 6.57
3. COc1cc2c(Oc3ccc4[nH]c(C)cc4c3F)ncnc2cc1OCCCN1CCCC1 [Cediranib] + C=C(F)C(=O)N1CCN(c2nc(OC[C@@H]3CCCN3C)nc3c2CCN(c2cccc4cccc(Cl)c24)C3)C[C@@H]1CC#N [adagrasib] | -0.83
4. C[C@H](CS)C(=O)N1CCC[C@H]1C(=O)O [Captopril] + C=C(F)C(=O)N1CCN(c2nc(OC[C@@H]3CCCN3C)nc3c2CCN(c2cccc4cccc(Cl)c24)C3)C[C@@H]1CC#N [adagrasib] | -3.8
5. CC(=O)c1c(C)c2cnc(Nc3ccc(N4CCNCC4)cn3)nc2n(C2CCCC2)c1=O [Palbociclib] + C=C(F)C(=O)N1CCN(c2nc(OC[C@@H]3CCCN3C)nc3c2CCN(c2cccc4cccc(Cl)c24)C3)C[C@@H]1CC#N [adagrasib] | 19.2
6. On1ncc2cc(CCc3nn[nH]n3)ccc21 + C=C(F)C(=O)N1CCN(c2nc(OC[C@@H]3CCCN3C)nc3c2CCN(c2cccc4cccc(Cl)c24)C3)C[C@@H]1CC#N [adagrasib] | -2.04
7. COC(=O)[C@]12CCC(C)(C)C[C@H]1[C@H]1C(=O)C=C3[C@@]4(C)C=C(C#N)C(=O)C(C)(C)[C@@H]4CC[C@@]3(C)[C@]1(C)CC2 [Bardoxolone methyl] + C=C(F)C(=O)N1CCN(c2nc(OC[C@@H]3CCCN3C)nc3c2CCN(c2cccc4cccc(Cl)c24)C3)C[C@@H]1CC#N [adagrasib] | 0.43
8. O=C(c1cc(Cc2n[nH]c(=O)c3ccccc23)ccc1F)N1CCN(C(=O)C2CC2)CC1 [Olaparib] + C=C(F)C(=O)N1CCN(c2nc(OC[C@@H]3CCCN3C)nc3c2CCN(c2cccc4cccc(Cl)c24)C3)C[C@@H]1CC#N [adagrasib] | 2.95

Go through the list and state combination cScore with adagrasib for each entry.
1. CO[C@@]12[C@H](COC(N)=O)C3=C(C(=O)C(C)=C(N)C3=O)N1C[C@@H]1N[C@@H]12 [Mitomycin C] + C=C(F)C(=O)N1CCN(c2nc(OC[C@@H]3CCCN3C)nc3c2CCN(c2cccc4cccc(Cl)c24)C3)C[C@@H]1CC#N [adagrasib]
2. Cc1ccc(NC(=O)c2ccc(CN3CCN(C)CC3)cc2)cc1Nc1nccc(-c2cccnc2)n1 [Imatinib] + C=C(F)C(=O)N1CCN(c2nc(OC[C@@H]3CCCN3C)nc3c2CCN(c2cccc4cccc(Cl)c24)C3)C[C@@H]1CC#N [adagrasib]
3. C[C@@H]1CN(CC(=O)Nc2ccc3c(c2)Cc2cccc(-c4cc(=O)cc(N5CCOCC5)o4)c2S3)C[C@H](C)O1 + C=C(F)C(=O)N1CCN(c2nc(OC[C@@H]3CCCN3C)nc3c2CCN(c2cccc4cccc(Cl)c24)C3)C[C@@H]1CC#N [adagrasib]
4. CO[C@H]1C[C@@H]2CC[C@@H](C)[C@@](O)(O2)C(=O)C(=O)N2CCCC[C@H]2C(=O)O[C@H]([C@H](C)C[C@@H]2CC[C@@H](O)[C@H](OC)C2)CC(=O)[C@H](C)/C=C(\C)[C@@H](O)[C@@H](OC)C(=O)[C@H](C)C[C@H](C)/C=C/C=C/C=C/1C [Rapamycin] + C=C(F)C(=O)N1CCN(c2nc(OC[C@@H]3CCCN3C)nc3c2CCN(c2cccc4cccc(Cl)c24)C3)C[C@@H]1CC#N [adagrasib]

Reply text:
1. -3.24
2. -2.11
3. 3.63
4. 6.52

Below is a list of molecules. For each, state its recorded combination cScore with adagrasib.
1. CO[C@H]1C[C@@H]2CC[C@@H](C)[C@@](O)(O2)C(=O)C(=O)N2CCCC[C@H]2C(=O)O[C@H]([C@H](C)C[C@@H]2CC[C@@H](OCCO)[C@H](OC)C2)CC(=O)[C@H](C)/C=C(\C)[C@@H](O)[C@@H](OC)C(=O)[C@H](C)C[C@H](C)/C=C/C=C/C=C/1C [Everolimus] + C=C(F)C(=O)N1CCN(c2nc(OC[C@@H]3CCCN3C)nc3c2CCN(c2cccc4cccc(Cl)c24)C3)C[C@@H]1CC#N [adagrasib]
2. O=C1c2c(O)ccc(O)c2C(=O)c2c(NCCNCCO)ccc(NCCNCCO)c21 [Mitoxantrone] + C=C(F)C(=O)N1CCN(c2nc(OC[C@@H]3CCCN3C)nc3c2CCN(c2cccc4cccc(Cl)c24)C3)C[C@@H]1CC#N [adagrasib]
3. CN(C)C(=N)NC(=N)N [Metformin] + C=C(F)C(=O)N1CCN(c2nc(OC[C@@H]3CCCN3C)nc3c2CCN(c2cccc4cccc(Cl)c24)C3)C[C@@H]1CC#N [adagrasib]

Reply text:
1: 1.15; 2: 5.32; 3: 1.92
